test system: ACHN (Homo sapiens); assay: Antiproliferative activity against human ACHN cells at 1 uM relative to control
Consider the following partition of reported Activity into named classes: b0 = under 30%, b1 = from 30% up to 60%, b2 = 60% and over

Cn1c(=O)c2c(c3ccccc31)OC(N)=C(C#N)C2c1ccccc1[N+](=O)[O-] (stereo unspecified); b1
CCOc1cc(C2C(C#N)=C(N)Oc3c2c(=O)n(C)c2ccccc32)ccc1O (stereo unspecified); b0
Cn1c(=O)c2c(c3ccccc31)OC(N)=C(C#N)C2c1ccc([N+](=O)[O-])cc1 (stereo unspecified); b0
Cn1c(=O)c2c(c3ccccc31)OC(N)=C(C#N)C2c1ccc(F)cc1 (stereo unspecified); b0
Cn1c(=O)c2c(c3ccccc31)OC(N)=C(C#N)C2c1cccc(Oc2ccccc2)c1 (stereo unspecified); b2
Cn1c(=O)c2c(c3ccccc31)OC(N)=C(C#N)C2c1c2ccccc2cc2ccccc12 (stereo unspecified); b0
COc1ccccc1C1C(C#N)=C(N)Oc2c1c(=O)n(C)c1ccccc21 (stereo unspecified); b1
Cn1c(=O)c2c(c3ccccc31)OC(N)=C(C#N)C2c1ccc(Cl)cc1 (stereo unspecified); b1
Cn1c(=O)c2c(c3ccccc31)OC(N)=C(C#N)C2c1cccc(Cl)c1 (stereo unspecified); b2
Cn1c(=O)c2c(c3ccccc31)OC(N)=C(C#N)C2c1c[nH]c2ccccc12 (stereo unspecified); b0
COc1ccc(C2C(C#N)=C(N)Oc3c2c(=O)n(C)c2ccccc32)cc1OC (stereo unspecified); b1
Cn1c(=O)c2c(c3ccccc31)OC(N)=C(C#N)C2c1cccc([N+](=O)[O-])c1 (stereo unspecified); b2
COc1cccc(C2C(C#N)=C(N)Oc3c2c(=O)n(C)c2ccccc32)c1 (stereo unspecified); b2
CSc1ccc(C2C(C#N)=C(N)Oc3c2c(=O)n(C)c2ccccc32)cc1 (stereo unspecified); b0
Cn1c(=O)c2c(c3ccccc31)OC(N)=C(C#N)C2c1cccc(Br)c1 (stereo unspecified); b2
Cn1c(=O)c2c(c3ccccc31)OC(N)=C(C#N)C2c1ccccc1Cl (stereo unspecified); b1
Cn1c(=O)c2c(c3ccccc31)OC(N)=C(C#N)C2c1cccc(O)c1 (stereo unspecified); b0
COc1ccc(C2C(C#N)=C(N)Oc3c2c(=O)n(C)c2ccccc32)cc1 (stereo unspecified); b2
Cn1c(=O)c2c(c3ccccc31)OC(N)=C(C#N)C2c1ccc(O)cc1 (stereo unspecified); b1
CN(C)c1ccc(C2C(C#N)=C(N)Oc3c2c(=O)n(C)c2ccccc32)cc1 (stereo unspecified); b1

* * *

test system: MDA-MB-231 (Homo sapiens); test: Antiproliferative activity against human MDA-MB-231 cells at 1 uM relative to control; details: mda-mb-231, 1 µM
endpoint label: Activity (%)

Cn1c(=O)c2c(c3ccccc31)OC(N)=C(C#N)C2c1ccc(Cl)cc1 (stereo unspecified); 0
Cn1c(=O)c2c(c3ccccc31)OC(N)=C(C#N)C2c1c[nH]c2ccccc12 (stereo unspecified); 16
Cn1c(=O)c2c(c3ccccc31)OC(N)=C(C#N)C2c1ccccc1Cl (stereo unspecified); 0
Cn1c(=O)c2c(c3ccccc31)OC(N)=C(C#N)C2c1ccccc1 (stereo unspecified); 0
COc1ccc(C2C(C#N)=C(N)Oc3c2c(=O)n(C)c2ccccc32)cc1 (stereo unspecified); 70
Cn1c(=O)c2c(c3ccccc31)OC(N)=C(C#N)C2c1cccc(Br)c1 (stereo unspecified); 45
CCOc1cc(C2C(C#N)=C(N)Oc3c2c(=O)n(C)c2ccccc32)ccc1O (stereo unspecified); 12
Cn1c(=O)c2c(c3ccccc31)OC(N)=C(C#N)C2c1ccc(O)cc1 (stereo unspecified); 23
Cn1c(=O)c2c(c3ccccc31)OC(N)=C(C#N)C2c1ccccc1[N+](=O)[O-] (stereo unspecified); 0
CN(C)c1ccc(C2C(C#N)=C(N)Oc3c2c(=O)n(C)c2ccccc32)cc1 (stereo unspecified); 20
Cn1c(=O)c2c(c3ccccc31)OC(N)=C(C#N)C2c1cccc([N+](=O)[O-])c1 (stereo unspecified); 53
Cn1c(=O)c2c(c3ccccc31)OC(N)=C(C#N)C2c1c2ccccc2cc2ccccc12 (stereo unspecified); 19
Cn1c(=O)c2c(c3ccccc31)OC(N)=C(C#N)C2c1cccc(Oc2ccccc2)c1 (stereo unspecified); 47
CSc1ccc(C2C(C#N)=C(N)Oc3c2c(=O)n(C)c2ccccc32)cc1 (stereo unspecified); 0
COc1cccc(C2C(C#N)=C(N)Oc3c2c(=O)n(C)c2ccccc32)c1 (stereo unspecified); 66
Cn1c(=O)c2c(c3ccccc31)OC(N)=C(C#N)C2c1cccc(Cl)c1 (stereo unspecified); 53

* * *

tested on: MIA PaCa-2 (Homo sapiens); assay: Antiproliferative activity against human MIA PaCa-2 cells at 1 uM relative to control
endpoint label: Activity (%)

Cn1c(=O)c2c(c3ccccc31)OC(N)=C(C#N)C2c1ccc(O)cc1 (stereo not given); 55
Cn1c(=O)c2c(c3ccccc31)OC(N)=C(C#N)C2c1ccccc1Cl (stereo not given); 26
Cn1c(=O)c2c(c3ccccc31)OC(N)=C(C#N)C2c1cccc(Cl)c1 (stereo not given); 63
COc1ccc(C2C(C#N)=C(N)Oc3c2c(=O)n(C)c2ccccc32)cc1OC (stereo not given); 40
COc1cccc(C2C(C#N)=C(N)Oc3c2c(=O)n(C)c2ccccc32)c1 (stereo not given); 76
Cn1c(=O)c2c(c3ccccc31)OC(N)=C(C#N)C2c1cccc([N+](=O)[O-])c1 (stereo not given); 65
Cn1c(=O)c2c(c3ccccc31)OC(N)=C(C#N)C2c1cccc(Br)c1 (stereo not given); 61
Cn1c(=O)c2c(c3ccccc31)OC(N)=C(C#N)C2c1ccccc1 (stereo not given); 45
COc1ccccc1C1C(C#N)=C(N)Oc2c1c(=O)n(C)c1ccccc21 (stereo not given); 24
Cn1c(=O)c2c(c3ccccc31)OC(N)=C(C#N)C2c1ccc(Cl)cc1 (stereo not given); 21
CN(C)c1ccc(C2C(C#N)=C(N)Oc3c2c(=O)n(C)c2ccccc32)cc1 (stereo not given); 34
CCOc1cc(C2C(C#N)=C(N)Oc3c2c(=O)n(C)c2ccccc32)ccc1O (stereo not given); 27
COc1ccc(C2C(C#N)=C(N)Oc3c2c(=O)n(C)c2ccccc32)cc1 (stereo not given); 80
Cn1c(=O)c2c(c3ccccc31)OC(N)=C(C#N)C2c1ccc(F)cc1 (stereo not given); 16
Cn1c(=O)c2c(c3ccccc31)OC(N)=C(C#N)C2c1cccc(Oc2ccccc2)c1 (stereo not given); 66
Cn1c(=O)c2c(c3ccccc31)OC(N)=C(C#N)C2c1ccccc1[N+](=O)[O-] (stereo not given); 35
Cn1c(=O)c2c(c3ccccc31)OC(N)=C(C#N)C2c1c[nH]c2ccccc12 (stereo not given); 18
Cn1c(=O)c2c(c3ccccc31)OC(N)=C(C#N)C2c1ccc([N+](=O)[O-])cc1 (stereo not given); 15
Cn1c(=O)c2c(c3ccccc31)OC(N)=C(C#N)C2c1cccc(O)c1 (stereo not given); 17
CSc1ccc(C2C(C#N)=C(N)Oc3c2c(=O)n(C)c2ccccc32)cc1 (stereo not given); 16
